TARGET SYSTEM: Kv7.2/7.3 (Homo sapiens, UniProt O43525+O43526)
TEST PROTOCOL: Kv7.2/7.3 Activation Assay, QPatch single concentration screen
Format: cell-based
Set-up: host or cells: HEK cells, tetracycline-inducible expression
CONDITION LABEL: Kv7.2/Kv7.3 co-expressing HEK cells, compound concentration 3 μM, steady-state current at end of 2 s pulse to −30 mV
OBSERVED PROPERTY: Kv7.2/7.3 Activity: increase over baseline in current

See these solved cases before continuing.
CC(O)(CC(=O)Nc1nc2ccc(OC(F)F)cc2n1C(C)(C)C)c1ccccc1 (single isomer, unassigned) | ++ (3-3.9 (++))
COc1cccc2nc(NC(=O)CC(C)(O)c3ccccc3)n(C3CCC3)c12 (single isomer, unassigned) [Example 442] | + (1.2-2.9 (+))
CC(C)(C)n1c(NC(=O)CC(C)(C)C(F)(F)F)nc2c(F)cc(C#N)c(F)c21 | ++ (3-3.9 (++))
CC(C)(O)c1ccc2nc(NC(=O)CC3CC(F)(F)C3(F)F)n(C3(C)CCC3)c2c1 (single isomer, unassigned) | + (1.2-2.9 (+))

Q: What does the record list as Kv7.2/7.3 Activity: increase over baseline in current for CC1(n2c(NC(=O)CC(C)(C)C(F)(F)F)nc3ccc(OC(F)F)cc32)CCC1 ?
Result: + (1.2-2.9 (+))

###

TARGET SYSTEM: Kv7.2/7.3 (Homo sapiens, UniProt O43525+O43526)
TEST PROTOCOL: Kv7.2/7.3 Activation Assay, QPatch single concentration screen
Type: cell-based
Set-up: host or cells: HEK cells, tetracycline-inducible expression; key: 1.2-2.9 (+); 3-3.9 (++); >4 (+++) fold increase over baseline; O represents open channel at holding potential
CONDITION LABEL: Kv7.2/Kv7.3 co-expressing HEK cells, compound concentration 3 μM, steady-state current at end of 2 s pulse to −30 mV
OBSERVED PROPERTY: Kv7.2/7.3 Activity: increase over baseline in current

CC(O)(CC(=O)Nc1nc2ccc(C#N)cc2n1C1CCC1)c1ccccc1F (single isomer, unassigned) [Example 452] | O
C[C@@H](CC(=O)Nc1nc2c(F)cc(C(C)(C)O)cc2n1C1CCC1)c1ccccc1 [Example 410] | O
